- System: Saccharomyces cerevisiae
- assay_notes: protein stability index of tFT-peptide fusion (C-terminal peptide) (PSI (0-1 scale)); higher = more stable (slower turnover)
- details: genetic background: wild type; temperature: 30 C
Label t when protein stability index is at or above 0.7; anything below gets f.

seq_string	classification
LMYIYQAFTTQD [GDT1 C-terminal 12 aa]	f
DKITAELILNKI [EMC2 C-terminal 12 aa]	f
KQEQESLGSNSK [DAD3 C-terminal 12 aa]	f
VPGNPGVVFQNI [CDC60 C-terminal 12 aa]	t
GKLLVPLVLYQI [YDR182W-A C-terminal 12 aa]	f
ARGCCEVTSKRF [YGL188C C-terminal 12 aa]	f
YAGENFHHGDKL [ENO2 C-terminal 12 aa]	t
DEDVDFLKVQVF [HAP4 C-terminal 12 aa]	t
CGGKRNLQRNNF [YLR149C-A C-terminal 12 aa]	f
ALHLLTKFTHII [SBH2 C-terminal 12 aa]	f
ACILMAISQFNS [KSH1 C-terminal 12 aa]	f
NSDTIARIATVM [DAS1 C-terminal 12 aa]	f
WDGNLFVWNGLG [PEX7 C-terminal 12 aa]	f
GIVNFWSLEKAA [CIA1 C-terminal 12 aa]	f
DEADSSMTEASV [SNF2 C-terminal 12 aa]	f
LKEFTQFCKDNS [MIX23 C-terminal 12 aa]	t

###

The following sequences are listed with their measured protein stability index values.
- Tested on: Saccharomyces cerevisiae
- assay_notes: protein stability index of tFT-peptide fusion (C-terminal peptide) (PSI (0-1 scale)); higher = more stable (slower turnover)
- details: genetic background: wild type; temperature: 30 C

seq_string	protein stability index
SSGADNSASSNQ [PAM16 C-terminal 12 aa]	0.667
KKGETFGYDKWW [OPT1 C-terminal 12 aa]	0.683
VDIRSFRQDMDL [YJR056C C-terminal 12 aa]	0.664
RKCRVYVIQDAF [YER084W-A C-terminal 12 aa]	0.678
CLREFMNGQRYI [DIA4 C-terminal 12 aa]	0.68
FCISFPCFGLSI [AIM26 C-terminal 12 aa]	0.704
ILQCFTDEILNC [NDJ1 C-terminal 12 aa]	0.68
SNKKLKSQWLIK [EMC1 C-terminal 12 aa]	0.665
FHSMAHLSLHQY [YOR394C-A C-terminal 12 aa]	0.478
NFKNSSAKSKRS [PKH2 C-terminal 12 aa]	0.695
VFLVISQHSLHS [YDR545C-A C-terminal 12 aa]	0.652
SKEKARALGSNF [GTT1 C-terminal 12 aa]	0.686
EFEKAQEINKKA [YRB1 C-terminal 12 aa]	0.694
KWIEYVEEFQNW [FRE5 C-terminal 12 aa]	0.73
ATRVSSRLRNKK [EAF7 C-terminal 12 aa]	0.701
DLMISCLMNQET [MTR3 C-terminal 12 aa]	0.673
MSSTDWVTKPTY [AFG1 C-terminal 12 aa]	0.678
LKIKVHIYRMKR [YHL015W-A C-terminal 12 aa]	0.599
FPFELRREQTEG [PET130 C-terminal 12 aa]	0.755
VYELVDAEALFS [YDR131C C-terminal 12 aa]	0.682
RKTIRRDLASLV [TMA108 C-terminal 12 aa]	0.571
VACDSDSSSTIE [YEN1 C-terminal 12 aa]	0.699
QMICPSLLGIRN [YHR130C C-terminal 12 aa]	0.699
RDMVELMKFYEL [HOS1 C-terminal 12 aa]	0.689
ISGGTFGFRSEI [HBT1 C-terminal 12 aa]	0.717

###

- System: Saccharomyces cerevisiae
- assay_notes: protein stability index of tFT-peptide fusion (C-terminal peptide) (PSI (0-1 scale)); higher = more stable (slower turnover)
- details: genetic background: wild type; temperature: 30 C
Note: every record was labeled by where its protein stability index sits among low interval: < 0.2; middle interval: ≥ 0.2 and < 0.3; high interval: ≥ 0.3

seq_string	classification
VPSPWLIRSLMS	middle interval
CVCVVVCWRCGF	high interval
RTRVRKTRIRTC	middle interval
VLWVYLFLFVIF	middle interval
VVFLLGPLVCGG	high interval
SLTHTPLGVTRT	high interval
VFFRCVCCLSVF	middle interval
RFPFFLPFIAFL	middle interval
IVRDTECGIFYR	high interval
VQTVRLVFQVLA	low interval
CVMWFLLSAYYL	middle interval
LLSGLVFVFVLG	middle interval
RLIQPLPVQFLN	low interval
ALLLLLRRFFLV	low interval
WTRAHWFFQFFV	low interval
TGGGGRVSLGVG	high interval
VLLLRRPLLVFS	low interval
SQIALIQYFHIL	low interval

###

- Test system: Saccharomyces cerevisiae
- assay_notes: protein stability index of tFT-peptide fusion (C-terminal peptide) (PSI (0-1 scale)); higher = more stable (slower turnover)
- details: genetic background: wild type; temperature: 30 C
endpoint: protein stability index

seq_string	target_or_system	endpoint	result
SPSSFVTFVVLE	Saccharomyces cerevisiae	protein stability index	0.652
FLGAELRRLGSL	Saccharomyces cerevisiae	protein stability index	0.703
WGLGVFALKTLL	Saccharomyces cerevisiae	protein stability index	0.623
TPLPLRFRCPYS	Saccharomyces cerevisiae	protein stability index	0.639
ACGGVWASGRGG	Saccharomyces cerevisiae	protein stability index	0.705
PEITWFVIGVIE	Saccharomyces cerevisiae	protein stability index	0.541
VSLCVVYGLVVG	Saccharomyces cerevisiae	protein stability index	0.373
IESLDRRGAEQI	Saccharomyces cerevisiae	protein stability index	0.747
PRRPAPSPLPTP	Saccharomyces cerevisiae	protein stability index	0.718
KEGSGQRRARRA	Saccharomyces cerevisiae	protein stability index	0.686
FVAGVGPLWGRR	Saccharomyces cerevisiae	protein stability index	0.661
IRPDLWYGLAVV	Saccharomyces cerevisiae	protein stability index	0.59
SVAWPRLLSISP	Saccharomyces cerevisiae	protein stability index	0.612
KNKKYKNKQKQR	Saccharomyces cerevisiae	protein stability index	0.714
CVLSFVRGCLGA	Saccharomyces cerevisiae	protein stability index	0.587
VRPEPSTGARGA	Saccharomyces cerevisiae	protein stability index	0.669
REGCYVRGGILL	Saccharomyces cerevisiae	protein stability index	0.68
YEEGRGEWIKKI	Saccharomyces cerevisiae	protein stability index	0.632
LHTSTRPLPPTS	Saccharomyces cerevisiae	protein stability index	0.675
SLGVVSHGASRP	Saccharomyces cerevisiae	protein stability index	0.693
LDVGSFLALRMR	Saccharomyces cerevisiae	protein stability index	0.627
LPWLLLISFSYR	Saccharomyces cerevisiae	protein stability index	0.286
SPSIRFILWGPI	Saccharomyces cerevisiae	protein stability index	0.678
SPSTRWPTVQTR	Saccharomyces cerevisiae	protein stability index	0.662
VGAGLRMRVGEA	Saccharomyces cerevisiae	protein stability index	0.669
LRLPSHHPLCYF	Saccharomyces cerevisiae	protein stability index	0.684
PLPPPPALILFP	Saccharomyces cerevisiae	protein stability index	0.686
VICVVLSKVFLF	Saccharomyces cerevisiae	protein stability index	0.444
TKRQKQKKKNKE	Saccharomyces cerevisiae	protein stability index	0.696
WYMYVRMASFLV	Saccharomyces cerevisiae	protein stability index	0.375
RKVYHSTRNTRK	Saccharomyces cerevisiae	protein stability index	0.702
PRPPRWSSPWPV	Saccharomyces cerevisiae	protein stability index	0.719
KLKKNKTREMET	Saccharomyces cerevisiae	protein stability index	0.789
CPLPLPPLHESF	Saccharomyces cerevisiae	protein stability index	0.674
QPAVKIGYAMAL	Saccharomyces cerevisiae	protein stability index	0.644
LLNAARIGNKGP	Saccharomyces cerevisiae	protein stability index	0.663
RFPLPGLISFSS	Saccharomyces cerevisiae	protein stability index	0.742
VEFGIFACFTRP	Saccharomyces cerevisiae	protein stability index	0.669
TLWLSGGGGMVI	Saccharomyces cerevisiae	protein stability index	0.731
MGYDYAPISALF	Saccharomyces cerevisiae	protein stability index	0.691
WLCVFVFGIFFV	Saccharomyces cerevisiae	protein stability index	0.204

###

The following sequences are listed with their measured protein stability index values.
- Test system: Saccharomyces cerevisiae
- assay_notes: protein stability index of tFT-peptide fusion (C-terminal peptide) (PSI (0-1 scale)); higher = more stable (slower turnover)
- details: genetic background: wild type; temperature: 30 C
endpoint: protein stability index

seq_string	quantitative_result
KIKINKRIQNKK	0.682
PPAPARFPFLPA	0.67
FSFSFYFALASF	0.46
SPPPPPALPEYQ	0.688
GCWGEWGWVGRG	0.696
GVGVWVVLGRAG	0.644
GEGKAGGESEEP	0.62
PQDYITTCQHPT	0.651
GMWGGLSPFLGQ	0.691
SPPPIVPPPSPP	0.662
PPPRPPPFPLSC	0.713
KKKKKKEYTKTN	0.718
SARDQGISCAEC	0.674
PPPRTPPDNHPN	0.726
GSGRPARCVEGG	0.644
PDGREQLVNGVT	0.636
RSGCGYCLVRLG	0.541
RGGGGAKGEGVR	0.707
PPPPPPLLPSPL	0.705
